- test-method-notes: chemical genetic growth profiling, strain panel (AID 1159580);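 note: tested at 20 µM; growth read once vehicle control cultures reached saturation at 30 °C; 1 = growth at the plate median or of vehicle wells; lower values mean less growth of the strain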
- condition-set: S. cerevisiae deletion strains, growth OD, locus YPL078C, strain atp4, stronger effect = lower value
Out of some 5,500 compounds screened, about 2,000 (36%) were called active. Roughly 18% stayed inconclusive and do not appear here. The list shows a part of the results.
metric-name: normalized growth

1) CCN[C@@H]1C[C@H](N)[C@@H](O[C@H]2OC(CN)=CC[C@H]2N)[C@H](O)[C@H]1OC1OC[C@](C)(O)[C@H](NC)[C@H]1O (some centres undefined): 0.972
2) C[C@]12C=CC(=O)C=C1CCC1C2[C@@H](O)C[C@@]2(C)C1CC[C@]2(O)C(=O)COP(=O)(O)O (some centres undefined): 1
3) CC1(C)C2CC(=O)[C@]3(C)C(CC[C@@]4(C)[C@H](c5ccoc5)OC(=O)[C@H]5O[C@]543)[C@@]2(C)C(=O)C[C@H]1O (some centres undefined): 1.01
4) CC1(C)C=CC(=O)[C@@]2(C)C1CC(=O)[C@]1(C)C2CC[C@@]2(C)[C@H](c3ccoc3)OC(=O)C3OC321 (some centres undefined): 1
5) CC(=O)O[C@@H]1CC2C(C)(C)C(=O)C=C[C@]2(C)C2CC[C@@]3(C)[C@H](c4ccoc4)OC(=O)[C@H]4O[C@]43[C@@]21C (some centres undefined): 1.01
6) CC1(C)C(=O)C=C[C@@]2(C)C1C=C[C@]1(C)C2CC[C@@]2(C)[C@H](c3ccoc3)OC(=O)C3OC321 (some centres undefined): 0.979
7) CC(C)(C)NCC(O)c1cc(Cl)c(N)c(Cl)c1 (centres undefined): 0.991
8) CCCCC1C(=O)N(c2ccccc2)N(c2ccc(O)cc2)C1=O (centres undefined): 1.02
9) CC(C)[N+](C)(CCC(C(N)=O)(c1ccccc1)c1ccccc1)C(C)C: 0.974

----------
Measured normalized growth of individual entries
- test-method-notes: chemical genetic growth profiling, strain panel (AID 1159580);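 note: tested at 20 µM; growth read once vehicle control cultures reached saturation at 30 °C; 1 = growth at the plate median or of vehicle wells; lower values mean less growth of the strain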
- condition-set: S. cerevisiae deletion strains, growth OD, locus YER167W, strain BCK2, stronger effect = lower value
Among all 5,500 compounds or so, about 2,000 (36%) were called active. Not shown: some 18% with an inconclusive outcome. Some of the results follow.
metric-name: normalized growth

1. COC(=O)C[C@H]1C(C)(C)C2(Cl)O[C@@]34CC2C(=O)[C@]1(C)C3CC[C@]1(C)C4=CC(=O)O[C@H]1c1ccoc1 (stereo not given in full): 1.01
2. COc1ccc(Cl)cc1C(=O)NCCc1ccc(S(=O)(=O)NC(=O)NC2CCCCC2)cc1: 1.01
3. NC(=O)c1ncn([C@@H]2O[C@H](CO)[C@@H](O)[C@H]2O)n1: 1.01
4. CC(=O)Oc1ccc2c(c1C(C)C)CCC1C(C)(C)CCC[C@]21C (stereo not given in full): 1.01
5. COC(=O)C1OC(=O)C2OC23C1(C)CCC1C2(C)C(OC(C)=O)CC(OC(C)=O)C(C)(C)C2CC(=O)C13C (stereo not given): 0.984

----------
- test-method-notes: chemical genetic growth profiling, strain panel (AID 1159580);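 note: tested at 20 µM; growth read once vehicle control cultures reached saturation at 30 °C; 1 = growth at the plate median or of vehicle wells; lower values mean less growth of the strain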
- condition-set: S. cerevisiae deletion strains, growth OD, locus YHR094C, strain hxt1, stronger effect = lower value
Hit rate of the full screen: of about 5,500 compounds, about 2,000 (36%) were called active. Inconclusive results (about 18%) are left out. The list shows a part of the results.
The threshold is 1. Values of normalized growth beneath it are tagged Fulfilled; values meeting or exceeding it are tagged Not fulfilled.

1) CCOC(=O)c1c(C)cc(O)cc1O: Fulfilled
2) COc1cc(OC)c2c(=O)c(O)c(-c3ccc(OC)c(OC)c3)oc2c1: Fulfilled
3) CCCC(C)(COC(N)=O)COC(=O)NC(C)C (centres undefined): Fulfilled
4) O=c1c(O)c(-c2cc(O)c(O)c(O)c2)oc2cc(O)cc(O)c12: Not fulfilled
5) COc1ccc2c(c1)CCC1C2CC[C@@]2(C)C1CC[C@@H]2O (some centres undefined): Fulfilled
6) CC(C)c1c(O)ccc2c1CCC1[C@@](C)(CO)CCC[C@]21C (some centres undefined): Fulfilled
7) CC(C)C1COc2cc3oc(=O)ccc3cc2O1 (centres undefined): Fulfilled
8) COc1ccc2ccc(=O)oc2c1: Not fulfilled
9) Cc1cc(C2CCCCC2)n(O)c(=O)c1: Fulfilled
10) COc1c2ccoc2cc2oc(=O)ccc12: Fulfilled
11) CC(C)c1c(O)ccc2c1CCC1[C@@](C)(C=O)CCC[C@]21C (some centres undefined): Fulfilled
